Note to self: these molecules have Ki reported for Substance-K receptor (Homo sapiens, UniProt P21452) in various publications.
VALUE_TYPE: Ki (nM)

// solved cases for Ki follow
CO/N=C(\COCc1cc(C(F)(F)F)cc(C(F)(F)F)c1)C(CCN1CCC(N2CCCC(C(N)=O)C2)CC1)c1ccc(Cl)c(Cl)c1 (stereo not drawn): 11
CC(C)c1ccc(Oc2ccc(NC(=O)N[C@H](Cc3ccccc3)C(=O)NCCCN3CCOCC3)cc2)cc1: 200
O=C(Nc1ccc(Oc2ccc(C(F)(F)F)cc2)cc1)N[C@@H](Cc1ccccc1)C(=O)NCCCN1CCOCC1: 250

1. Cc1ccc2cc(C(=O)NC3(C(=O)N[C@@H](CCCN4CCN(Cc5nnn(C)n5)CC4)Cc4ccccc4)CCCC3)sc2c1
2. CCC(O)(CC)C1CCN(CCC(CN(C)C(=O)c2ccccc2)c2ccc(Cl)c(Cl)c2)CC1 (stereo not drawn)
3. CC[C@H](NC(=O)c1c(CN2CCN(C3CCCCC3)CC2)c(-c2ccccc2)nc2ccccc12)c1ccccc1
4. CO/N=C(\COCc1cc(C(F)(F)F)cc(C(F)(F)F)c1)C(CCN1CCC(CN2CCCCC2CCO)CC1)c1ccc(Cl)c(Cl)c1 (stereo not drawn)
input: # rank by Ki, ascending (min first) Kindly provide the labels arranged according to the requested ordering.
output: 1, 3, 2, 4

a. Cc1ccc2cc(C(=O)NC3(C(=O)N[C@H](Cc4ccccc4)CN4CCN(CC5CCOCC5)CC4)CCCC3)sc2c1
b. CO/N=C(\COCc1cc(C(F)(F)F)cc(C(F)(F)F)c1)C(CCN1CCN(CC(=O)N2CCC(O)C2)CC1)c1ccc(Cl)c(Cl)c1 (stereo not drawn)
input: Param metric = Ki; output whichever of a , b has the minimum value. Could you answer with the label of the item you picked?
output: a
(a: 2 nM, b: 30 nM)

a. CO/N=C(\COCc1cc(C(F)(F)F)cc(C(F)(F)F)c1)C(CCN1CCN(C)CC1)c1ccc(Cl)c(Cl)c1 (stereo not drawn)
b. O=C(N[C@@H](Cc1ccccc1)C(=O)NCCCN1CCOCC1)c1cccc(-c2ccccc2)c1
input: Param metric = Ki; output whichever of a , b has the minimum value. Could you answer with the label of the item you picked?
output: a
(a: 200 nM, b: 2000 nM)
